System: Aspergillus niger
Assay: Antifungal activity against Aspergillus niger ATCC 16404 after 24 hrs by MTT assay
Format: functional
Conditions: ATCC 16404, 24 h
measurement-kind: MIC

Prompt: # query: MIC of entry O=C(Nc1ccc(F)cc1)N1CCOCC1
Completion: > 50 µg/mL

Prompt: Using the record for O=C(Nc1cc(Cl)cc(Cl)c1)N1CCOCC1 , report its MIC.
Completion: > 50 µg/mL

Prompt: What MIC value was documented for this compound, CCN(CC)C(=O)Nc1ccccc1F ?
Completion: > 50 µg/mL

Prompt: Data request, read-out MIC, for O=C(Nc1ccccc1F)N1CCOCC1
Completion: > 50 µg/mL

Prompt: Query (compound): O=C(Nc1cccc2cccnc12)N1CCOCC1 ; field requested: MIC
Completion: > 50 µg/mL

Prompt: Need MIC of CCN(CC)C(=O)Nc1ccc(Cl)cc1Cl , thanks.
Completion: 45.2 µg/mL

Prompt: Which value of MIC has been reported for O=C(N1CCOCC1)N1CCCc2ccccc21 in the records?
Completion: 12.5 µg/mL

Prompt: What value of MIC has been reported for the following compound? CCN(CC)C(=O)Nc1ccc(Br)cc1
Completion: 23 µg/mL

Prompt: Fill in the blank: the reported MIC of O=C(Nc1ccc(F)cc1F)N1CCOCC1 is ____.
Completion: > 50 µg/mL

Prompt: Recorded MIC for COc1ccc(NC(=O)N2CCOCC2)cc1 , please?
Completion: > 50 µg/mL

Prompt: What does the record list as MIC for CCN(CC)C(=O)Nc1ccc(F)cc1 ?
Completion: > 50 µg/mL

Prompt: Given the entry O=C(Nc1ccc(Cl)cc1Cl)N1CCOCC1 , report its measured MIC.
Completion: > 50 µg/mL

Prompt: Field request: MIC | item: Cc1ccc(NC(=O)N2CCOCC2)cc1
Completion: > 50 µg/mL

Prompt: Need MIC, item CCN(CC)C(=O)Nc1ccc(F)cc1F
Completion: > 50 µg/mL
